- Test system: egg plant
- assay overview: Phytotoxicity on various crops
- Type: in vivo
- Parameters: key: Symbol — indicates that no toxicity was observed
- experimental setup: 500 ppm sprayed; checked visually after 10 days
endpoint: Phytotoxicity: Egg Plant

| compound | endpoint | recorded result |
| --- | --- | --- |
| CCOP(=O)(Oc1ccc2c(c1)OC(CC)=C(C)C2(CC)CC)SC(C)CC (stereo not drawn) | Phytotoxicity: Egg Plant | — |
| CCOP(=O)(Oc1ccc2c(c1)OC(C)=CC2(C)C)SC(C)C (stereo not drawn) | Phytotoxicity: Egg Plant | — |
| CCCCSP(=O)(OCC)Oc1ccc2c(c1)OC(C)=CC2(C)C (stereo not drawn) | Phytotoxicity: Egg Plant | — |
| CCCSP(=O)(OCC)Oc1ccc2c(c1)OC(CC)=C(C)C2(CC)CC (stereo not drawn) | Phytotoxicity: Egg Plant | — |
| CCCSP(=O)(OC)Oc1ccc2c(c1)OC(C)=CC2(C)C (stereo not drawn) | Phytotoxicity: Egg Plant | — |
| CCCSP(=O)(OCC)Oc1ccc2c(c1)OC(C)=CC2(C)C (stereo not drawn) | Phytotoxicity: Egg Plant | — |
| CCCOP(=O)(Oc1ccc2c(c1)OC(C)=CC2(C)C)SC (stereo not drawn) | Phytotoxicity: Egg Plant | — |
| CCOP(=O)(Oc1ccc2c(c1)OC(C)=CC2(C)C)SC(C)CC (stereo not drawn) | Phytotoxicity: Egg Plant | — |
| CCCSP(=O)(OCC)Oc1cccc2c1C(C)=CC(C)(C)O2 (stereo not drawn) | Phytotoxicity: Egg Plant | — |
